Provenance of the data: patent US20260327294

Reported pKd by item:
# Tgt: RSV A2 pre-F (RSV A2)
# Method Notes: BLI
pKd: −log10 of the molar value.

Binder	pKd
F6-65 (antibody, V domains shown) VH: QVQLVESGGGLVQPGDSLRLSCAASGFTFKSYGLHWVRQAPGKGLEWVAGLSYDGFSGYYADSVKGRFTVSRDNSKNTLYLHINSLRSEDTSIYYCARGGDGEIFSWIGYFYYMDVWGKGTTVTVFS VL: QSALTQPASVSGSPGQSITISCSGTTNDVGGYDYVSWYQHHPGKAPKLLIYDVSQRPSGVSSRFSGSKSGNTASLTISGLQTDDEAHYYCSSYTITNTLKFGGGTTLTVL	9.02
F6-49 (antibody, V domains shown) VH: QVQLVESGGGVVLPGTSLTLSCAASGFTFRHYAIHWVRQTPGGGLEWVAALPYDGSTKYFAESVKDRFTIYRDNSQAAAFLHMSSLTPGDTALYYCARSTYSYEYSFLGYFYYMDVWGRGTSVTVSS VL: QSALTQPASVSGSPGQSISISCTGTSRDVGAYTYISWSQQHTGQAPKLLIYDVSERPSGVSDRFSGSKTGDTASLAISGLQAEDEAVYYCSSYTDSNTVVFGGGTKVTVL	9.15
F6-88 (antibody, V domains shown) VH: QVQLVQSGAEVKKPGASVRVSCGASGNSFTRHGFSWVRQAPGQGLEWIGLISAHKSNTIYAQKFQGRVTVTTDTSTSTAYMELRSLRSDDTAVYYCVRDVTVVTDVGSGYDFPMDVWGQGTTVTVSS VL: QSVLTQSPSASGTPGQRVTISCSGSNSNIGGDYVHWYQQVPGTAPRLLIYNTNQRPSGVPDRFSGSKSGTSGSLAISGLRSEDEADYYCATWDDSLNGWVFGGGTKLTVL	9.07
F6-37 (antibody, V domains shown) VH: QVHLVESGGNVVHPGTSLSLSCAGSGFTFKSHAIHWVRQAPGRGLEWVAFVPYDGATNYYADSLKGRFTVSRDNSRNTVSLHMNRLEGQDTAVYFCARGATSGSYSFLGYNYYMDVWGRGTTVTVSS VL: QSALTQPASVSGSPGQSITISCTGTSSDVGAYTYVSWYQQLPGKAPKLLLFDVTDRPSGVAHRFSGSKSGNTASLTISGLQAEDEAEYYCSSYTDRNTLVFGGGTKLTVL	9.17
F6-63 (antibody, V domains shown) VH: QVQVVESGGGVVEPGGSLSLSCAASGFSFKMHAMHWVRQAPGKGLEWVAFIPYDGSSQYYADSVKGRFTIYRDNFKNTLYLQMNSLRVEDTSLYYCARGGEEGAWSWIGYNSYMDVWGRGTAVTVSS VL: QSALTQPASVSGSPGQSITISCSGTSSDVGGYDYVCWYQKHPGESPRLIIYDVSRRPSGVSNRFSGSKSGNTASLTISGLQAEDEADYSCSSYTSSNTLIFGGGTKLTVL	9.11
